Target: T1, RBM15 RRM1 (UniProt Q96T37 170-252)
T1 sequence: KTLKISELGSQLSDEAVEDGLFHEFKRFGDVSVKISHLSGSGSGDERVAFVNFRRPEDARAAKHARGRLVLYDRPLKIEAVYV
Experiment: filter binding
Metric Name: Kd (nM)

INSERT INTO results (binder, unit_abbrev, measured_value) VALUES
  ('GGCCAACACUCUGGCCCAUCGGGGUGACGGCC (structured_RNA) [XIST A-repeat stem-loop (32nt)]', 'nM', 433),
  ('GGUUCUUGAAAAGAGGACC (structured_RNA) [FIRRE RRD stem-loop (19nt)]', 'nM', 370);
